Data origin: patent US11897862B2

Please provide measured Dmax for the entries that follow.
Target Or System: IKZF2 (Homo sapiens, UniProt Q96SW2+Q9UKS7)
Sequence (Q9UKS7 1-500 isoform Q9UKS7-2): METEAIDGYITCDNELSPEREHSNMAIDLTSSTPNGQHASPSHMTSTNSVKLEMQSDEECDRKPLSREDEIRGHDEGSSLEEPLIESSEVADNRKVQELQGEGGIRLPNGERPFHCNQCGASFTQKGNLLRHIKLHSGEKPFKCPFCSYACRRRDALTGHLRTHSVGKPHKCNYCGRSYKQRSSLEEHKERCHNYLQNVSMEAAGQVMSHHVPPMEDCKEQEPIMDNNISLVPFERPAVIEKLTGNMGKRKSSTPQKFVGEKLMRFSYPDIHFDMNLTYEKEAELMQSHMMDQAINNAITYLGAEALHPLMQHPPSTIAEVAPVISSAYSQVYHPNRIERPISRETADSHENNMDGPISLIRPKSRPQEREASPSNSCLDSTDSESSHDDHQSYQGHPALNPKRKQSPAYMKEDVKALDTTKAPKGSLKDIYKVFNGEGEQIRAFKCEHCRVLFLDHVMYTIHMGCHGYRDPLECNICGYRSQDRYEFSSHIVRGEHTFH
Sequence (Q96SW2 whole entry): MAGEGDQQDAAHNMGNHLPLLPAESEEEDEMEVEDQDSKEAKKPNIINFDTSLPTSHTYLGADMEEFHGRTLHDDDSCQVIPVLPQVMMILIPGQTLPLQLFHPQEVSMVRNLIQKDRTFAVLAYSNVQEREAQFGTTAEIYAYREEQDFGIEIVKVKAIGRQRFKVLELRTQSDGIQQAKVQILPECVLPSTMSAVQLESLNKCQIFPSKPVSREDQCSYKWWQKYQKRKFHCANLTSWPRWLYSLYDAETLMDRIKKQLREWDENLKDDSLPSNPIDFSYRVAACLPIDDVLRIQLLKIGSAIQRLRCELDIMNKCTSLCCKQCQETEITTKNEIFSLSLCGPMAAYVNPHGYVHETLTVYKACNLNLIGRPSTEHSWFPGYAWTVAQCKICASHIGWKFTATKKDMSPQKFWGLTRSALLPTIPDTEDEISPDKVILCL
Sequence (Q16531 whole entry partner): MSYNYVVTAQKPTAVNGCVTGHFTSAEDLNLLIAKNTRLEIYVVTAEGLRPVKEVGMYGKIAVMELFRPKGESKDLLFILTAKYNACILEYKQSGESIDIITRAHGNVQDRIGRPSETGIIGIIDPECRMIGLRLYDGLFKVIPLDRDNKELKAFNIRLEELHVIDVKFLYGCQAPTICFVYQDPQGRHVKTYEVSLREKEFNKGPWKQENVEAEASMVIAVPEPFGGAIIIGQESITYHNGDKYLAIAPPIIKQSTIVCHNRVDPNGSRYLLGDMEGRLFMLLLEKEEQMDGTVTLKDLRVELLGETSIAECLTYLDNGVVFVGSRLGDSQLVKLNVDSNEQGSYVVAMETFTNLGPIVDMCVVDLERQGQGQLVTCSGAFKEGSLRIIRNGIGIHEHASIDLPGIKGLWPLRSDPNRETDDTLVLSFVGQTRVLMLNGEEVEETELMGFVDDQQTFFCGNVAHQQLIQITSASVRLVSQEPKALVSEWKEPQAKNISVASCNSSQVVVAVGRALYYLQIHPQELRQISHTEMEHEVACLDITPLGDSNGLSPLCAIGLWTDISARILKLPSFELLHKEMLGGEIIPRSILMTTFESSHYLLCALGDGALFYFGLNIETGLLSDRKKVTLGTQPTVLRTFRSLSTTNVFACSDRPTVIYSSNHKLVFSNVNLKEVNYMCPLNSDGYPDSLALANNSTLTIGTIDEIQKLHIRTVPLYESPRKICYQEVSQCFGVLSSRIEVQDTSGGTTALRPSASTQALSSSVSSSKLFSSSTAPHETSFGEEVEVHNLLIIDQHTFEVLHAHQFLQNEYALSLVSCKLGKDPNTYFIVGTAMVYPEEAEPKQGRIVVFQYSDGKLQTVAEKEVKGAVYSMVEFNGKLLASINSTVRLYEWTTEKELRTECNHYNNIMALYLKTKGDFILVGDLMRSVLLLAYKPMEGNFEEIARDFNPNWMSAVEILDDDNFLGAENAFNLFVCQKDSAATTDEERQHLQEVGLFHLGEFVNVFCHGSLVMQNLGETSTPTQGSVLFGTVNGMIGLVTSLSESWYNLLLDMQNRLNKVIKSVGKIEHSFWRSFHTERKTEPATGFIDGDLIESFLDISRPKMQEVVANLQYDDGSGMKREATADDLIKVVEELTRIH
Protocol: HEK293 HiBiT in vitro degradation of IKZF2
Type: cell-based
Parameters: expressed in transfected cells
Test Settings: HEK293, HEK293 HiBiT; maximum degradation at the highest concentration tested
Output spec: scalar in %, unitless text.

Provide one value: measured Dmax of CS(=O)(=O)c1ccc(CN[C@H]2CCCC[C@@H]2Cc2ccc3c(c2)CN(C2CCC(=O)NC2=O)C3=O)cc1 (stereo partly shown) [Example 12]
85

Look up Dmax of O=C1CCC(N2Cc3cc(C[C@H]4CCCC[C@@H]4NC4CCCCC45CC5)ccc3C2=O)C(=O)N1 (stereo partly shown) [Example 228] and report it.
94

Read off the recorded Dmax for O=C1CCC(N2Cc3cc(C[C@H]4CCC(F)(F)C[C@@H]4NC4CCC(F)(F)CC4)ccc3C2=O)C(=O)N1 (stereo partly shown) [Example 345]
97

Identify measured Dmax corresponding to CC(N[C@H]1CCCC[C@@H]1Cc1ccc2c(c1)CN(C1CCC(=O)NC1=O)C2=O)C(F)F (stereo partly shown) [Example 130]
76

Give a short answer stating reported Dmax for O=C1CCC(N2Cc3cc(C[C@H]4CCCC[C@@H]4NC4CCC(C(F)(F)F)CC4)ccc3C2=O)C(=O)N1 (single isomer, unassigned) [Example 121] .
97

Note Dmax for the molecule shown: O=C1CCC(N2Cc3cc(N[C@H]4CCCC[C@@H]4NCc4ccccc4)ccc3C2=O)C(=O)N1 (stereo partly shown) [Example C-1]
64

Please report the measured Dmax for N[C@H]1CCCC[C@@H]1Cc1ccc2c(c1)CN(C1CCC(=O)NC1=O)C2=O (stereo partly shown) [Example 1]
82

Recall and state the measured Dmax for CC(=O)N1CCC(N[C@H]2CCCC[C@@H]2Cc2ccc3c(c2)CN(C2CCC(=O)NC2=O)C3=O)CC1 (stereo partly shown) [Example 108] .
96

Give a short answer stating reported Dmax for CCC(C)N[C@H]1CCCC[C@@H]1Cc1ccc2c(c1)CN(C1CCC(=O)NC1=O)C2=O (single isomer, unassigned) [Example 299] .
98

Please look at this molecule and report its Dmax: CC(N[C@H]1CCCC[C@@H]1Cc1ccc2c(c1)CN(C1CCC(=O)NC1=O)C2=O)C1(F)CC1 (single isomer, unassigned) [Example 224]
96

Answer with reported Dmax of CC(N[C@H]1CCCO[C@@H]1Cc1ccc2c(c1F)CN(C1CCC(=O)NC1=O)C2=O)C1CCC1 (single isomer, unassigned) [Example 247]
97

Determine its reported Dmax: O=C1CCC(N2Cc3cc(C[C@H]4OCCC[C@@H]4NC4CCCCC4)ccc3C2=O)C(=O)N1 (stereo partly shown) [Example 95]
88

Recall and state the measured Dmax for O=C1CCC(N2Cc3cc(C[C@H]4CCCC[C@@H]4NCC4CC4)ccc3C2=O)C(=O)N1 (stereo partly shown) [Example 8] .
94

Tell me its Dmax given O=C1CCC(N2Cc3cc(C[C@H]4CCCC[C@@H]4NCc4cc(Cl)cc(Cl)c4)ccc3C2=O)C(=O)N1 (stereo partly shown) [Example 13] as the entry.
68

Identify the reported Dmax for the following entry. CC(C)(C)CCN[C@H]1CCCC[C@@H]1Cc1ccc2c(c1F)CN(C1CCC(=O)NC1=O)C2=O (stereo partly shown) [Example 89]
97

Name the recorded Dmax of the molecule listed here: O=C1CCC(N2Cc3cc(C[C@H]4CCCC[C@@H]4NCC4CCOC4)ccc3C2=O)C(=O)N1 (stereo partly shown) [Example 69]
91

Give a short answer stating reported Dmax for O=C1CCC(N2Cc3cc(C[C@H]4CCCC[C@@H]4NC4CCC5COC4O5)ccc3C2=O)C(=O)N1 (stereo partly shown) [Example 195] .
96

Look up and report measured Dmax for this entry: CC1(C)CC(N[C@H]2CCCC[C@@H]2Cc2ccc3c(c2)CN(C2CCC(=O)NC2=O)C3=O)C1 (stereo partly shown) [Example 82]
94

Retrieve Dmax measured for CC1(C)OCC(N[C@H]2CCCC[C@@H]2Cc2ccc3c(c2)CN(C2CCC(=O)NC2=O)C3=O)CO1 (stereo partly shown) [Example 161] and print it.
88

Please supply the value of reported Dmax for the item CCC(CC)N[C@H]1CCCC[C@@H]1Cc1ccc2c(c1)CN(C1CCC(=O)NC1=O)C2=O (stereo partly shown) [Example 23]
95

Give the measured Dmax for Cn1ccc(CN[C@H]2CCCC[C@@H]2Cc2ccc3c(c2)CN(C2CCC(=O)NC2=O)C3=O)n1 (stereo partly shown) [Example 38]
97

Look up Dmax of O=C1CCC(N2Cc3cc(C[C@H]4CCCC[C@@H]4NC4CC5CC(C5)C4)ccc3C2=O)C(=O)N1 (stereo partly shown) [Example 29] and report it.
96

Give Dmax for the following molecule: O=C1CCC(N2Cc3cc(C[C@H]4CCCC[C@@H]4NC4CCCC[C@H]4F)ccc3C2=O)C(=O)N1 (stereo partly shown) [Example 107]
96

Give me measured Dmax, please, for this molecule: O=C1CCC(N2Cc3cc(C[C@H]4CCCC[C@@H]4NCC45CC(c6ccccc6)(C4)C5(F)F)ccc3C2=O)C(=O)N1 (stereo partly shown) [Example 174]
86

# return recorded Dmax for entry O=C1CCC(N2Cc3c(ccc(C[C@H]4CCCC[C@@H]4NCC4CCOCC4)c3F)C2=O)C(=O)N1 (stereo partly shown) [Example 115]
96

Specify measured Dmax for O=C1CCC(N2Cc3cc(C[C@H]4CC[C@@H](F)C[C@@H]4NC4CCCCC4)ccc3C2=O)C(=O)N1 (stereo partly shown) [Example 355] .
91

Return value of Dmax for input O=C1CCC(N2Cc3cc(C[C@H]4CCCC[C@@H]4NCc4ncc(F)cc4F)ccc3C2=O)C(=O)N1 (stereo partly shown) [Example 44] , no commentary.
60

Find the measured Dmax of CO[C@H]1CC[C@H](Cc2ccc3c(c2)CN(C2CCC(=O)NC2=O)C3=O)[C@@H](NC2CCC(F)(F)CC2)C1 (stereo partly shown) [Example 344] and report it.
93
